Here the recorded Ki is given for each entry.
# test target: Gamma-aminobutyric acid receptor subunit alpha-1 (Rattus norvegicus, UniProt P62813)
# Sequence (P62813 whole entry): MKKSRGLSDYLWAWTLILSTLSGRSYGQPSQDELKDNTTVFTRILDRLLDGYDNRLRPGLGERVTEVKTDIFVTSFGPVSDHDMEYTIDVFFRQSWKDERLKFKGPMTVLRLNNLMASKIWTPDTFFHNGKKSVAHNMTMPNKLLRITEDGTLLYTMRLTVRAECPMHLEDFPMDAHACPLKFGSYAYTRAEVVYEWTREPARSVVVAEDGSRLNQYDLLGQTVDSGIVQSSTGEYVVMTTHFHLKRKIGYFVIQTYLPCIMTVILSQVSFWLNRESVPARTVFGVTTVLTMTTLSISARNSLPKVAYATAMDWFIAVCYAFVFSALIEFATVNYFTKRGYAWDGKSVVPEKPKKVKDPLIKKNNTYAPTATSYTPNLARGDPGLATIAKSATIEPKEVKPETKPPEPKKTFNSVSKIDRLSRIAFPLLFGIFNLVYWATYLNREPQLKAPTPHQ

// known answers, use as guide
>  <compound>
O=C1Nc2ccc(Cl)cc2C(c2ccccc2)=N[C@@H]1Cc1c[nH]c2ccccc12

>  <test target>
Gamma-aminobutyric acid receptor subunit alpha-1 (Rattus norvegicus, UniProt P62813)

>  <observed measurement>
> 10 µM

$$$$
>  <compound>
O=C1Nc2ccc(Cl)cc2C(c2ccccc2)=N[C@H]1Cc1c[nH]c2ccccc12 [CCK antagonist synthetic 6]

>  <test target>
Gamma-aminobutyric acid receptor subunit alpha-1 (Rattus norvegicus, UniProt P62813)

>  <observed measurement>
5.6 µM

$$$$
>  <compound>
O=C(NC1N=C(c2ccccc2)c2ccccc2NC1=O)c1cc2ccccc2[nH]1 (centres undefined)

>  <test target>
Gamma-aminobutyric acid receptor subunit alpha-1 (Rattus norvegicus, UniProt P62813)

>  <observed measurement>
> 10 µM

$$$$

(Q) Any idea what its Ki is? The compound is O=C1Nc2ccccc2C(c2ccccc2)=N[C@@H]1Cc1c[nH]c2ccccc12 [CCK antagonist synthetic 8]
(A) > 10 µM

---

Below are Ki values measured for GABA(A) receptor-associated protein (Sus scrofa, UniProt D7RA28).

>  <molecule>
O=C(O)CN1C(=O)C(NC(=O)c2cc3ccccc3[nH]2)N=C(c2ccccc2)c2ccccc21 (centres undefined) [CCK antagonist synthetic 20]

>  <test target>
GABA(A) receptor-associated protein (Sus scrofa, UniProt D7RA28)
Sequence (D7RA28 whole entry): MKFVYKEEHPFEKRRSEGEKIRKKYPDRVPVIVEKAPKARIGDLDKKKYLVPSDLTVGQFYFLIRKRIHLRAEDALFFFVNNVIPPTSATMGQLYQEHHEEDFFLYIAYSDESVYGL

>  <observed measurement>
> 10 µM

$$$$
>  <molecule>
O=C(O)CN1C(=O)[C@@H](Cc2c[nH]c3ccccc23)N=C(c2ccccc2F)c2ccccc21 [CCK antagonist synthetic 13]

>  <test target>
GABA(A) receptor-associated protein (Sus scrofa, UniProt D7RA28)

>  <observed measurement>
> 10 µM

$$$$
>  <molecule>
CN1C(=O)C(NC(=O)c2cc3ccccc3[nH]2)N=C(c2ccccc2)c2cc(F)ccc21 (centres undefined) [CCK antagonist synthetic 22]

>  <test target>
GABA(A) receptor-associated protein (Sus scrofa, UniProt D7RA28)

>  <observed measurement>
7.8 µM

$$$$
>  <molecule>
O=C(NC1N=C(c2ccccc2F)c2ccccc2NC1=O)c1cc2ccccc2[nH]1 (centres undefined)

>  <test target>
GABA(A) receptor-associated protein (Sus scrofa, UniProt D7RA28)

>  <observed measurement>
3 µM

$$$$
>  <molecule>
CN1C(=O)[C@@H](Cc2c[nH]c3ccccc23)N=C(c2ccccc2F)c2ccccc21 [CCK antagonist synthetic 11]

>  <test target>
GABA(A) receptor-associated protein (Sus scrofa, UniProt D7RA28)

>  <observed measurement>
> 10 µM

$$$$
>  <molecule>
Cc1nnc2n1-c1ccccc1C(c1ccccc1F)=NC2Cc1c[nH]c2ccccc12 (centres undefined)

>  <test target>
GABA(A) receptor-associated protein (Sus scrofa, UniProt D7RA28)

>  <observed measurement>
0.8 µM

$$$$

(Q) Any idea what its Ki is? The molecule is CN1C(=O)[C@H](NC(=O)c2cc3ccccc3[nH]2)N=C(c2ccccc2)c2ccccc21
(A) > 10 µM

(Q) // next record CN1C(=O)[C@@H](NC(=O)c2cc3ccccc3[nH]2)N=C(c2ccccc2)c2ccccc21
(A) > 10 µM

(Q) // next record O=C1Nc2ccccc2C(c2ccccc2F)=N[C@@H]1Cc1c[nH]c2ccccc12 [CCK antagonist synthetic 9]
(A) > 10 µM
